# reported IC50; entries follow
system.name: PKCα (Homo sapiens, UniProt P17252)
Construct: His6; purchased Millipore; host or cells: baculovirus in Sf21 cells
test: In vitro enzyme assay (time-resolved fluorescence kinase assay), PKCα, 100 μM ATP
Type: biochemical
condition.context: 100 μM ATP; read-out: PKCα enzyme IC50

{"compound": "CC1C(=O)NN=C2COc3cc(-c4ccccc4)c(NC4CNC4)cc3N21 (racemic) [Example 51]", "system.name": "PKCα (Homo sapiens, UniProt P17252)", "result": "1000 to 10000 nM"}
{"compound": "CC(C)c1cc2c(cc1OC1CNC1)N1C(=NNC(=O)C1C)CO2 (stereo not shown) [Example 68, trifluoroacetic acid]", "system.name": "PKCα (Homo sapiens, UniProt P17252)", "result": "1000 to 10000 nM"}
{"compound": "C[C@@H]1C(=O)NN=C2COc3cc(-c4c(F)cccc4F)c([C@@H]4CCN(C)C[C@@H]4C)cc3N21 [Example 245]", "system.name": "PKCα (Homo sapiens, UniProt P17252)", "result": "250 to 1000 nM"}

Please look up its IC50: C[C@@H]1C(=O)NN=C2COc3cc(-c4ccccc4Cl)c(NC4CNC4)cc3N21 [Example 2]
250 to 1000 nM

State the recorded IC50 for this entry: CC1C(=O)NN=C2COc3cc(-c4ccccc4)c(NC4(C)CNC4)cc3N21 (stereo not shown) [Example 79, trifluoroacetic acid]
1000 to 10000 nM

Entry C[C@@H]1CN(C)[C@@H](C)CN1c1cc2c(cc1-c1ccccc1F)OCC1=NNC(=O)[C@@H](C)N12 [Example 246] : reported IC50 = ?
250 to 1000 nM

Record request: IC50 value, item CC1C(=O)NN=C2COc3cc(-c4ccc5ncsc5c4)c(NC4CNC4)cc3N21 (racemic) [Example 38]
1000 to 10000 nM

---

system.name: PKCα (Homo sapiens, UniProt P17252)
Construct: His6; purchased Millipore; host or cells: baculovirus in Sf21 cells
test: In vitro enzyme assay (time-resolved fluorescence kinase assay), PKCα, 100 μM ATP
Format: biochemical
pIC50: −log10 of the molar value.
property: pIC50

Endpoint output: pIC50 of COc1ccc(-c2cc3c(cc2[C@@H]2CCN(C)C[C@@H]2C)N2C(=NNC(=O)[C@H]2C)CO3)c(F)c1 [Example 201] . Value?
> 6.60

---

system.name: PKCα (Homo sapiens)
Construct: His6; purchased Millipore; host or cells: baculovirus in Sf21 cells
test: In vitro enzyme assay (time-resolved fluorescence kinase assay), PKCα, 100 μM ATP
Format: biochemical
condition.context: 100 μM ATP; read-out: PKCα enzyme IC50
pIC50: −log10 of the molar value.
Quick reference: pIC50 of the listed items.

Field: example entries. Status: answers known.
{"molecule": "C[C@@H]1C(=O)NN=C2COc3cc(-c4ccc(Cl)cc4Cl)c(NC4CNC4)cc3N21", "pIC50": "5.00 to 6.00"}
{"molecule": "Cc1ccc(-c2cc3c(cc2NC2CNC2)N2C(=NNC(=O)C2C)CO3)cc1F (racemic)", "pIC50": "5.00 to 6.00"}
{"molecule": "C[C@H](O)CN1CC(C)([C@H](C)c2cc3c(cc2-c2ccccc2F)OCC2=NNC(=O)[C@@H](C)N23)C1", "pIC50": "> 6.60"}

Report pIC50 for "C[C@@H]1C(=O)NN=C2COc3cc(-c4ccccc4Cl)c(C4CCNCC4)cc3N21" please.
5.00 to 6.00

---

system.name: PKCα (Homo sapiens)
Construct: His6; purchased Millipore; host or cells: baculovirus in Sf21 cells
test: In vitro enzyme assay (time-resolved fluorescence kinase assay), PKCα, 100 μM ATP
Assay type: biochemical
condition.context: 100 μM ATP; read-out: PKCα enzyme IC50
property: IC50

Please review the following examples before continuing.
{"compound": "CC(C)c1cc2c(cc1NC1CNC1)N1C(=NNC(=O)[C@@H]1C)CO2 (single isomer, unassigned)", "IC50": "1000 to 10000 nM"}
{"compound": "C[C@@H]1C(=O)NN=C2COc3cc(-c4ccccc4F)c(N4CCNC[C@@H]4C)cc3N21", "IC50": "250 to 1000 nM"}
{"compound": "CC1C(=O)NN=C2COc3cc(-c4ccccc4F)c(NC4CNC4)cc3N21 (racemic)", "IC50": "1000 to 10000 nM"}
{"compound": "CC1C(=O)NN=C2COc3cc(-c4ccccc4)c(C4CCNCC4)cc3N21 (stereo not drawn)", "IC50": "1000 to 10000 nM"}
{"compound": "CC1C(=O)NN=C2COc3cc(-c4cccc(F)c4)c(NC4CNC4)cc3N21 (racemic)", "IC50": "1000 to 10000 nM"}
{"compound": "CC1C(=O)NN=C2COc3cc(C(F)(F)F)c(C4CCNC(Cc5ccccc5)C4)cc3N21 (stereo not drawn)", "IC50": "1000 to 10000 nM"}

I have this compound here, Cc1cc(F)ccc1-c1cc2c(cc1NC1CNC1)N1C(=NNC(=O)C1C)CO2 (racemic) , and I need its recorded IC50.
1000 to 10000 nM

Given CC1C(=O)NN=C2COc3cc(C(C)C(F)(F)F)c(NC4(C)CNC4)cc3N21 (stereo not drawn) , state its recorded IC50.
1000 to 10000 nM

Would you mind telling me what IC50 value was observed for CC1C(=O)NN=C2COc3cc(-c4ccc(Cl)cc4)c(NC4CNC4)cc3N21 (racemic) ?
1000 to 10000 nM

Field request: IC50 | item: CC(C)N1CC(C)(N(C)c2cc3c(cc2-c2ccccc2)OCC2=NNC(=O)C(C)N23)C1 (stereo not drawn)
250 to 1000 nM

Using the record for CC1C(=O)NN=C2COc3cc(-c4ccc(F)cc4)c(NC4CNC4)cc3N21 (racemic) , report its IC50.
1000 to 10000 nM

Please report the recorded IC50 for Cc1cc2c(cc1NC1(C)CNC1)N1C(=NNC(=O)C1C)CO2 (stereo not drawn) .
1000 to 10000 nM

What value of measured IC50 is listed for "C[C@H](O)CN1CC(C)(N(C)c2cc3c(cc2-c2ccccc2F)OCC2=NNC(=O)[C@@H](C)N23)C1" ?
< 250 nM

Entry "Cc1ccccc1-c1cc2c(cc1NC1CNC1)N1C(=NNC(=O)[C@H]1C)CO2" has what IC50?
1000 to 10000 nM

Entry Cc1cc2c(cc1NC1CN(C)C1)N1C(=NNC(=O)C1C)CO2 (stereo not drawn) : reported IC50 = ?
1000 to 10000 nM

Reported IC50, compound "CC[C@H]1CN(C)CCN1c1cc2c(cc1-c1ccccc1F)OCC1=NNC(=O)[C@@H](C)N12" : ____
1000 to 10000 nM

---

Form field: pIC50 (one value per entry).
system.name: PKCθ (Homo sapiens)
Construct: His6
Sequence (Q04759 whole entry): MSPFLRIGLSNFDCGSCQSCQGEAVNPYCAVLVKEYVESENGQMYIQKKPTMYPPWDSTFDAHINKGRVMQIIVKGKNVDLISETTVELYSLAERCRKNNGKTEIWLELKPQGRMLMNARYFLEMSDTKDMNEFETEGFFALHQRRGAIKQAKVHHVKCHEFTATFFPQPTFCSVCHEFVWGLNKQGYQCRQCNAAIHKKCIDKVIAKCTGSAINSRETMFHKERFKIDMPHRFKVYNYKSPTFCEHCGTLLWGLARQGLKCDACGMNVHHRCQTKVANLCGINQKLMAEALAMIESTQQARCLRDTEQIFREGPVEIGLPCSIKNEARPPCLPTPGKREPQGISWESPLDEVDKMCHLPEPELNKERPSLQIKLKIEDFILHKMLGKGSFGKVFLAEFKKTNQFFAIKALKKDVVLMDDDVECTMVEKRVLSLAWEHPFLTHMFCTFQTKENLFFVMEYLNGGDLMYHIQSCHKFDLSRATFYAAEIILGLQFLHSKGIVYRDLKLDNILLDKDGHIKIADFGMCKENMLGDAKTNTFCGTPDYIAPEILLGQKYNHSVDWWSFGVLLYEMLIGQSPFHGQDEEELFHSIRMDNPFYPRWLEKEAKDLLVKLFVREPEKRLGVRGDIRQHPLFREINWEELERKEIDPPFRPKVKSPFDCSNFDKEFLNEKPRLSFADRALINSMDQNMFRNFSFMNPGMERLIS
test: In vitro enzyme assay (time-resolved fluorescence kinase assay), PKCθ, 100 μM ATP
pIC50: −log10 of the molar value. Where a name gives a salt, the structure may show the parent alone.

Known pIC50 results, listed for orientation:
{"compound": "C[C@@H]1C(=O)NN=C2COc3cc(-c4ccccc4Cl)c(N(C)C4(C)CN(C)C4)cc3N21 [Example 177]", "system.name": "PKCθ (Homo sapiens)", "pIC50": "> 6.60"}
{"compound": "C[C@@H]1C(=O)NN=C2COc3cc(-c4ccccc4F)c(N(C)C4(C)CN(C(=O)CCN(C)C)C4)cc3N21 [Example 185]", "system.name": "PKCθ (Homo sapiens)", "pIC50": "> 6.60"}
{"compound": "C[C@H](c1ccc2c(c1)N1C(=NNC(=O)[C@H]1C)CO2)C1CNC1 [Example 110]", "system.name": "PKCθ (Homo sapiens)", "pIC50": "6.00 to 6.60"}
{"compound": "C[C@@H]1C(=O)NN=C2COc3cc(-c4ccccc4F)c([C@@H](C)C4(C)CNC4)cc3N21 [Example 146]", "system.name": "PKCθ (Homo sapiens)", "pIC50": "> 6.60"}
{"compound": "CCN(c1cc2c(cc1-c1ccccc1F)OCC1=NNC(=O)C(C)N12)C1(C)CN(C)C1 (stereo not drawn) [Example 166]", "system.name": "PKCθ (Homo sapiens)", "pIC50": "> 6.60"}
{"compound": "Cc1cc2c(cc1NC1CNC1)N1C(=NNC(=O)[C@@H]1C)CO2 (single isomer, unassigned) [Example 54-2, trifluoroacetic acid]", "system.name": "PKCθ (Homo sapiens)", "pIC50": "6.00 to 6.60"}
{"compound": "C[C@@H]1C(=O)NN=C2COc3cc(-c4ccccc4F)c(N(C)C4(C)CN(CCO)C4)cc3N21 [Example 191]", "system.name": "PKCθ (Homo sapiens)", "pIC50": "> 6.60"}
{"compound": "CC1C(=O)NN=C2COc3cc(-c4ccc(C(F)(F)F)cc4)c(NC4CNC4)cc3N21 (racemic) [Example 14]", "system.name": "PKCθ (Homo sapiens)", "pIC50": "6.00 to 6.60"}

Return pIC50 measured with PKCθ (Homo sapiens) given this compound: CC1C(=O)NN=C2COc3cc(-c4ccc(N(C)C)cc4)c(NC4CNC4)cc3N21 (racemic) [Example 19]
6.00 to 6.60

Value wanted: pIC50 (PKCθ (Homo sapiens)) of entry C[C@@H]1C(=O)NN=C2COc3cc(-c4ccccc4C(C)(C)O)c([C@@H](C)C4(C)CN(C)C4)cc3N21 [Example 137]
> 6.60

Please state recorded pIC50 (tested on PKCθ (Homo sapiens)) of C[C@@H]1C(=O)NN=C2COc3cc(-c4cccc(F)c4)c(NC4CNC4)cc3N21 [Example 6]
> 6.60

Which pIC50 is reported with PKCθ (Homo sapiens) for this entry: C[C@@H]1C(=O)NN=C2COc3cc(-c4ccccc4F)c([C@H]4CCCNC4)cc3N21 [Example 216] ?
> 6.60

Return pIC50 measured with PKCθ (Homo sapiens) given this compound: CCc1cn(C2(C)CNC2)c2cc3c(cc12)OCC1=NNC(=O)[C@@H](C)N13 [Example 156, hydrochloride]
> 6.60

What reported pIC50 corresponds to CC(C)c1cc2c(cc1[C@@H](C)C1(C)CNC1)N1C(=NNC(=O)[C@H]1C)CO2 [Example 133] on PKCθ (Homo sapiens)?
6.00 to 6.60

Cited source for all entries: patent US9115151B2
